Source listed as ChEMBL document CHEMBL1144710.

inhibition listing for selected molecules.
target.desc: NAD-dependent protein deacetylase sirtuin-1 (Homo sapiens)
experimental.protocol: Inhibition of human SIRT1 at 25 uM
Dear colleague, please return just the value in %, with no unit written.

- smiles.notation: "O=C1/C(=C/c2cc(Br)c(O)c(Br)c2)CCC/C1=C\\c1cc(Br)c(O)c(Br)c1"
  meas.value: 50
- smiles.notation: "O=C(Nc1cccc(NC(=O)c2cc(Br)c(O)c(Br)c2)c1)c1cc(Br)c(O)c(Br)c1"
  meas.value: 2
- smiles.notation: "O=C(/C=C/c1cc(Br)c(O)c(Br)c1)c1ccc(C(=O)/C=C/c2cc(Br)c(O)c(Br)c2)cc1"
  meas.value: 45
- smiles.notation: "O=C(/C=C/c1ccc(O)c(Br)c1)c1cc(Br)c(O)c(Br)c1"
  meas.value: 35

Query molecule follows.
Query O=C(/C=C/c1cc(Br)c(O)c(Br)c1)/C=C/c1cc(Br)c(O)c(Br)c1 yields inhibition of 61
